From: patent US4292321A

# test.system: dopamine receptor (Bos taurus, UniProt P20288)
# Construct: from tissue
# Sequence (P20288 whole entry): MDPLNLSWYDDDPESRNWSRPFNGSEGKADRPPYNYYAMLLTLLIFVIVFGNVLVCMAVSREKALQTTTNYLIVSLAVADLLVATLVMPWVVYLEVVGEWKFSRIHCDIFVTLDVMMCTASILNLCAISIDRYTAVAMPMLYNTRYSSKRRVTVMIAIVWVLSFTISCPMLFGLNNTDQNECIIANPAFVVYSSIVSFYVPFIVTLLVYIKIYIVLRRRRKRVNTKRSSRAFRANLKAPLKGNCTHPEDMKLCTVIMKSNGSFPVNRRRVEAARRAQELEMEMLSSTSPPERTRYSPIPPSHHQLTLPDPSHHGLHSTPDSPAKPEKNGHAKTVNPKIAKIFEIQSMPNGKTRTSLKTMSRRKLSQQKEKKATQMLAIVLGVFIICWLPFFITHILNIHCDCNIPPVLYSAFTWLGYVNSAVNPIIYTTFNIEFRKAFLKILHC
# assay.procedure: 3H-haloperidol receptor binding assay (HRBA)
# experimental.parameters: 10 n moles concentration
readout.label: inhibition of 3H-haloperidol binding

> print(dat)
                                   molecule      obs.value
1  OC(c1ccccc1)C1CCN(CCCN(c2ccccc2)c2ccccc2)CC1 (stereo not drawn) [Example 43]  no inhibition
2  FC(F)(F)c1cccc(OC2CCN(CCCN(c3ccccc3)c3ccccc3)CC2)c1.O=C(O)C(=O)O [Example 24]  no inhibition
3  CC(C)Sc1ccccc1N1CCN(CCCN(c2ccccc2)c2ccccc2)CC1.Cl [Example 33]  no inhibition

* * *

# test.system: dopamine receptor (Bos taurus, UniProt P20288)
# Construct: from tissue
# assay.procedure: 3H-haloperidol receptor binding assay (HRBA)
# experimental.parameters: read-out: inhibition of 3H-haloperidol binding
Where a name gives a salt, the structure may show the parent alone.
Entries and their inhibition at 0.1 µM
readout.label: inhibition at 0.1 µM

> print(dat)
                                   molecule  obs.value
1  CC(C)Sc1ccccc1N1CCN(CCCN(c2ccccc2)c2ccccc2)CC1.Cl [Example 33, hydrochloride]       ~28%
2  O=c1[nH]c2ccccc2n1C1CCN(CCCN(c2ccccc2)c2ccccc2)CC1 [Example 9, hydrochloride]       ~91%
3  O=c1[nH]c2ccccc2n1C1=CCN(CCCN(c2ccc(F)cc2)c2ccc(F)cc2)CC1 [Example 7, hydrochloride]       ~67%
4  OC1(c2ccc(Cl)cc2)CCN(CCCN(c2ccc(F)cc2)c2ccc(F)cc2)CC1 [Example 20]      ~100%
5  Clc1ccc(OC2=CCN(CCCN(c3ccccc3)c3ccccc3)CC2)cc1Cl.O=C(O)C(=O)O [Example 26]       ~26%

* * *

# test.system: dopamine receptor (Bos taurus, UniProt P20288)
# Construct: from tissue
# assay.procedure: 3H-haloperidol receptor binding assay (HRBA)
# experimental.parameters: read-out: inhibition of 3H-haloperidol binding
Counter-ions that a name gives are not always drawn.
Entries and their inhibition at 0.1 µM
readout.label: inhibition at 0.1 µM

> print(dat)
                                    compound                               test.system         readout.label  obs.value
 1  c1ccc(CN2CCN(CCCN(c3ccccc3)c3ccccc3)CC2)cc1  dopamine receptor (Bos taurus, UniProt P20288)  inhibition at 0.1 µM       ~33%
 2  OC1(c2cccc(F)c2)CCN(CCCN(c2ccccc2)c2ccccc2)CC1  dopamine receptor (Bos taurus, UniProt P20288)  inhibition at 0.1 µM       ~83%
 3  Fc1cccc(C2=CCN(CCCN(c3ccccc3)c3ccccc3)CC2)c1.O=C(O)C(=O)O  dopamine receptor (Bos taurus, UniProt P20288)  inhibition at 0.1 µM       ~23%
 4  COc1ccc(N2CNC(=O)C23CCN(CCCN(c2ccccc2)c2ccccc2)CC3)cc1  dopamine receptor (Bos taurus, UniProt P20288)  inhibition at 0.1 µM       ~98%
 5  O=c1[nH]c2ccccc2n1C1CCN(CCCN(c2ccccc2)c2ccc([N+](=O)[O-])cc2)CC1 [Example 10, hydrochloride]  dopamine receptor (Bos taurus, UniProt P20288)  inhibition at 0.1 µM       ~75%
 6  Fc1ccc(NC2CCN(CCCN(c3ccccc3)c3ccccc3)CC2)cc1  dopamine receptor (Bos taurus, UniProt P20288)  inhibition at 0.1 µM       ~90%
 7  O=C1NCN(c2ccc(F)cc2)C12CCN(CCCN(c1ccccc1)c1ccccc1)CC2  dopamine receptor (Bos taurus, UniProt P20288)  inhibition at 0.1 µM       ~85%
 8  c1ccc(OC2CCN(CCCN(c3ccccc3)c3ccccc3)CC2)cc1  dopamine receptor (Bos taurus, UniProt P20288)  inhibition at 0.1 µM       ~59%
 9  Cc1ccc(N2CNC(=O)C23CCN(CCCN(c2ccccc2)c2ccccc2)CC3)cc1  dopamine receptor (Bos taurus, UniProt P20288)  inhibition at 0.1 µM       ~87%
10  O=C1NCN(c2ccccc2)C12CCN(CCCN(c1ccc(F)cc1)c1ccc(F)cc1)CC2 [Example 1, hydrobromide]  dopamine receptor (Bos taurus, UniProt P20288)  inhibition at 0.1 µM       ~77%
11  O=C1NCN(c2ccc(F)cc2)C12CCN(CCCN(c1ccc(F)cc1)c1ccc(F)cc1)CC2  dopamine receptor (Bos taurus, UniProt P20288)  inhibition at 0.1 µM      ~100%
12  COc1ccccc1N1CCN(CCCN(c2ccc(F)cc2)c2ccc(F)cc2)CC1 [Example 35, dihydrochloride]  dopamine receptor (Bos taurus, UniProt P20288)  inhibition at 0.1 µM       ~79%
13  O=C(c1ccc(Cl)cc1)C1CCN(CCCN(c2ccc(F)cc2)c2ccc(F)cc2)CC1  dopamine receptor (Bos taurus, UniProt P20288)  inhibition at 0.1 µM       ~69%
14  CCCSc1ccccc1N1CCN(CCCN(c2ccccc2)c2ccccc2)CC1  dopamine receptor (Bos taurus, UniProt P20288)  inhibition at 0.1 µM       ~64%
15  Cl.Cl.Fc1ccc(N(CCCN2CCN(c3ccccc3)CC2)c2ccc(F)cc2)cc1 [Example 37, dihydrochloride]  dopamine receptor (Bos taurus, UniProt P20288)  inhibition at 0.1 µM       ~37%
16  OCCN1CCN(CCCN(c2ccc(F)cc2)c2ccc(F)cc2)CC1 [Example 36, dihydrochloride]  dopamine receptor (Bos taurus, UniProt P20288)  inhibition at 0.1 µM       ~62%
17  FC(F)(F)c1cccc(OC2CCN(CCCN(c3ccccc3)c3ccccc3)CC2)c1.O=C(O)C(=O)O  dopamine receptor (Bos taurus, UniProt P20288)  inhibition at 0.1 µM        ~8%

* * *

Entries and their inhibition at 0.01 µM
# test.system: dopamine receptor (Bos taurus)
# Construct: from tissue
# assay.procedure: 3H-haloperidol receptor binding assay (HRBA)
# experimental.parameters: 10 n moles concentration; read-out: inhibition of 3H-haloperidol binding
Where a name gives a salt, the structure may show the parent alone.
readout.label: inhibition at 0.01 µM

> print(dat)
                                   compound                     test.system  obs.value
1    c1ccc(N(CCCNC2=NC3CCC2CC3)c2ccccc2)cc1  dopamine receptor (Bos taurus)        ~3%
2  c1ccc(N(CCCN2CCC3(CC2)OCCO3)c2ccccc2)cc1  dopamine receptor (Bos taurus)       ~10%
3  Cc1cccc(N(CCCN2CCC(n3c(=O)[nH]c4ccccc43)CC2)c2ccccc2)c1 [Example 11, hydrochloride]  dopamine receptor (Bos taurus)       ~61%
4  O=c1[nH]c2ccccc2n1C1CCN(CCCN(c2ccc(F)cc2)c2ccc(F)cc2)CC1  dopamine receptor (Bos taurus)       ~78%
5  Cc1cc2[nH]c(=O)n(C3CCN(CCCN(c4ccccc4)c4ccccc4)CC3)c2cc1C  dopamine receptor (Bos taurus)       ~53%
6  Cc1cccc(C2CCN(CCCN(c3ccccc3)c3ccccc3)CC2)c1  dopamine receptor (Bos taurus)       ~25%

* * *

# test.system: dopamine receptor (Bos taurus, UniProt P20288)
# Construct: from tissue
# assay.procedure: 3H-haloperidol receptor binding assay (HRBA)
# experimental.parameters: 10 n moles concentration; read-out: inhibition of 3H-haloperidol binding
Entries and their inhibition at 0.01 µM
readout.label: inhibition at 0.01 µM

> print(dat)
                                 cpd.smiles                               test.system  obs.value
1  Fc1ccc(N(CCCN2CCC(n3c(=S)[nH]c4ccccc43)CC2)c2ccc(F)cc2)cc1  dopamine receptor (Bos taurus, UniProt P20288)       ~28%
2  O=c1[nH]c2ccccc2n1C1CCN(CCCN(c2ccc(F)cc2)c2ccccc2F)CC1  dopamine receptor (Bos taurus, UniProt P20288)       ~92%
3  FC(F)(F)c1cccc(OC2=CCN(CCCN(c3ccccc3)c3ccccc3)CC2)c1  dopamine receptor (Bos taurus, UniProt P20288)        ~6%
4  Cc1cc2[nH]c(=O)n(C3CCN(CCCN(c4ccc(F)cc4)c4ccc(F)cc4)CC3)c2cc1C  dopamine receptor (Bos taurus, UniProt P20288)       ~85%
5  C1=C(Oc2ccccc2)CCN(CCCN(c2ccccc2)c2ccccc2)C1  dopamine receptor (Bos taurus, UniProt P20288)        ~8%
6  Cc1cc2c(cc1C)n(C1CCN(CCCN(c3ccccc3)c3ccccc3)CC1)c(=O)n2C  dopamine receptor (Bos taurus, UniProt P20288)        ~6%
7  Fc1ccc(OC2=CCN(CCCN(c3ccc(F)cc3)c3ccc(F)cc3)CC2)cc1  dopamine receptor (Bos taurus, UniProt P20288)       ~43%
8  O=c1[nH]c2ccccc2n1C1CCN(CCCN(c2ccccc2)c2ccc(F)cc2)CC1  dopamine receptor (Bos taurus, UniProt P20288)       ~74%
